experimental-target: human VEGF165 (human, UniProt P15692 207-395)
Sequence (P15692 other isoform, or with tags, fused parts or gaps limits assumed): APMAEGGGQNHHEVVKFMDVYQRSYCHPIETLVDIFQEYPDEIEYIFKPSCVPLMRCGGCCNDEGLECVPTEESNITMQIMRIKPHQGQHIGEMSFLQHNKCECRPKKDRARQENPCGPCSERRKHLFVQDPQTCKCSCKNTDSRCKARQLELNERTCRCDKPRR
assay: cell-based or functional assay

| binder | HUVEC proliferation, geometric mean IC50, nM |
| --- | --- |
| XPA.10.064.03 IgG2 (antibody, V domains shown, IgG2) VH: EVQLVQSGAEVRKPGASVKVSCKASGYSFTGHYIHWVRQAPGQGLEWMGWINPYSGGTNFPREFQGRVTMTRDTSVNTVYMELTRLTSDDTSVYYCARDQMVHGGLDYWGQGTLVTVSS VL: SYVLTQPPSASGTPGQRVTISCSGSSSNIGINYVYWYQQLPGTAPKLLIYRNDQRPSGVPDRFSGSKSGTSASLAISGLRSEDEADYYCATWDDSLSGVVFGGGTKVTVL | 0.174 |
| XPA.10.064.10 IgG2 (antibody, V domains shown, IgG2) VH: EVQLVQSGAEVRKPGASVKVSCKASGYSFTGHYIHWVRQAPGQGLEWMGWINPYSGGTNFPREFQGRVTMTRDTSVNTVYMELTRLTSDDTSVYYCARDEMVWGGLDYWGQGTLVTVSS VL: SYVLTQPPSASGTPGQRVTISCSGSSSNIGINYVYWYQQLPGTAPKLLIYRNDQRPSGVPDRFSGSKSGTSASLAISGLRSEDEADYYCATWDDSLSGVVFGGGTKVTVL | 0.139 |
| XPA.10.064 IgG2 (antibody, V domains shown, Converted to IgG with gamma-2 heavy chain constant region; Expressed in 293E cells; also called parental XPA.10.064; VPA.10.064) VH: EVQLVQSGAEVRKPGASVKVSCKASGYSFTGHYIHWVRQAPGQGLEWMGWINPYSGGTNFPREFQGRVTMTRDTSVNTVYMELTRLTSDDTSVYYCARDHRIVGGLDYWGQGTLVTVSS VL: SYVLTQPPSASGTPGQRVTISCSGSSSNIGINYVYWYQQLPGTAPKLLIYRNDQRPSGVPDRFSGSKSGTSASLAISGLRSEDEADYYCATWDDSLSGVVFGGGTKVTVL | 1.32 |
| XPA.10.064.06 IgG2 (antibody, V domains shown, IgG2) VH: EVQLVQSGAEVRKPGASVKVSCKASGYSFTGHYIHWVRQAPGQGLEWMGWINPYSGGTNFPREFQGRVTMTRDTSVNTVYMELTRLTSDDTSVYYCARDEMTRGGLDYWGQGTLVTVSS VL: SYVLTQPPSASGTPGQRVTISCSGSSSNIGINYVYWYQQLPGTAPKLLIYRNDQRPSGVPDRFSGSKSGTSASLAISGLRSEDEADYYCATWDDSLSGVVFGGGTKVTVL | 0.173 |

Every entry's value here was drawn from patent US20110097340A1.
